- EXPERIMENTAL_SYSTEM: T1, recombinant fibronectin domain ED-B (His)6 (human, UniProt P02751 1266-1356)
- T1 construct: domain: ED-B; Biotinylated ED-B was used only in pannings; also called rekombinantes ED-B; human ED-B
- ASSAY_INFO: SPR (BIAcore), about 100 RU ED-B on chip, Fab in flow
EXPERIMENTAL_ENDPOINT: pKd
Scale explanation: pKd corresponds to minus log10 of a concentration expressed in moles per litre.

Briefly, pKd measured for MOR03255 (Fab, V domains shown) VH: QVQLVESGGGLVQPGGSLRLSCAASGFTFSSYGMHWVRQAPGKGLEWVSVISNRSSYIYYADSVKGRFTISRDNSKNTLYLQMNSLRAEDTAVYYCARNKVGFDVWGQGTLVTVSS VL: DIALTQPASVSGSPGQSITISCTGTSSDGGGYNTVSWYQQHPGKAPKLMIYYVHKRPSGVSNRFSGSKSGNTASLTISGLQAEDEADYYCQSWDLSVHQVVFGGGTKLTVLG : 10.52
